I'd be grateful if you could share measured Enzyme Activity Endpoint Assay: IgG for these entries.
biological target: pooled human IgG (human IgG1, 2, 3 and 4) (human); assay: cell-based or functional assay; note: test concentration or dose not given here
Field: value (include unit after the number)

[
  {
    "Binder": "PRT-418 (enzyme) MTITSVWTKGVTPPTPEDFRYNNEDVLHAPYVANQGWYDITKTFDGKDNLLCGAATAGNMLHWWFDQNKEEIERYLKKHPEKQKIIFNNQELFDVKAAIDTKDSQTNSKLFNYFRDKAFPNLSARQLGVMPDLVLDMFINGYYLNLGKTQSTDVNRPYQDKDKRGGIFDAVFTRGDQTTLLTARHDLKNKGLNEISDLIKQELTEGKALALSHTYANVRINHVINLWGADFDAEGNLIAIYVTDSDANASIGMKKYAVGVNANGKVAISAKKIEGDNIGAQVLGLFTLSTGQDIWQKLS",
    "Measured Metric": "Enzyme Activity Endpoint Assay: IgG",
    "Result": "288 ng/µL"
  }
]

Next, consider the following binder.
[Q] What does the record list as Enzyme Activity Endpoint Assay: IgG for PRT-385 (enzyme) MVTSVWTKGVTPPTNFTYGEDVLHAPYVANQGWYDITKTFNGKDDLLCGAATAGNMLHWWFDQNKEQIENYLKKHPEKQKINFNGEQMFDVKEAIDTKDSQLDSKLFEYFKEKAFPYLSTKHLGVFPDHVIDMFINGYRLSLTNHGPTPVKRGSKDPRGGIFDAVFTRGDQSKLLTNRHDFKEKTLKEISDLIKQELTEGKALGISHTYANGRINHVINLWGADFDAEGNLEAIYVTDSDSNASIGMKKYFVGVNSNGKVAISAKEIEEDNIGAQVLGLFTLSTGQDIWNQTN ?
[A] 103 ng/µL

This collection of values is drawn from patent US20250027068A1.
